Recorded values, source patent US20080213836.

- target-of-assay: T1, Gly-Asp-Asp-Asp-Asp-Lys-β-naphthylamide
- T1 chain: GDDDDK
Measured kcat/Km (mM^-1 · min^-1) of individual entries

{"protein": "Medaka EP-1 serine protease domain mutant K63R (protein) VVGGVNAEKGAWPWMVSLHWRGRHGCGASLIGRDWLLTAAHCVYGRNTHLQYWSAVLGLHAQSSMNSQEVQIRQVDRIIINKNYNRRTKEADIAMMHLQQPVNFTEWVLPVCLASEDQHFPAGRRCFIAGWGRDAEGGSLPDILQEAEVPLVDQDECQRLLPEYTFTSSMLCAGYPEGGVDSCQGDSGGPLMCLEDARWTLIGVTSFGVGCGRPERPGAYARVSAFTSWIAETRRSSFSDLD", "kcat/Km (mM^-1 · min^-1)": 1100}
{"protein": "porcine EP serine protease domain (Ile800 to His1034) (protein) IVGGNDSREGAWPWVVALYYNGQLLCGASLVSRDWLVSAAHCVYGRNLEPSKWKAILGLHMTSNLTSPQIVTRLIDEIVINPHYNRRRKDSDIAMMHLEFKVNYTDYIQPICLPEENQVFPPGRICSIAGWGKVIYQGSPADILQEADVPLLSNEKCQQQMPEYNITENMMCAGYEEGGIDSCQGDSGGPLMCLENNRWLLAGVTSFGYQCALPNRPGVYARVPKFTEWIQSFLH", "kcat/Km (mM^-1 · min^-1)": 1300}
{"protein": "Bovine EP serine protease (Novagen) (protein) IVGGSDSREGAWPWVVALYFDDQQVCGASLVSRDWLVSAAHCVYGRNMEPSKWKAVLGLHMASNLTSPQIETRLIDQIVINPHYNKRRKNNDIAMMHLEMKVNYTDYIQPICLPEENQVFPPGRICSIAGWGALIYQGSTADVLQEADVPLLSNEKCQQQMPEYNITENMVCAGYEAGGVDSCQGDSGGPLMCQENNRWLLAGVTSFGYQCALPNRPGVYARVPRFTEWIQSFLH", "kcat/Km (mM^-1 · min^-1)": 960}
